# tested-on: PIM1 transgenic cells (Ba/F3) (Homo sapiens)
# assay-remarks: Proliferation inhibitory effect on PIM1 transgenic cells
# Assay type: cell-based, mouse
# experimental-parameters: proliferation inhibition, 72 hours, Cell Counting Kit-8, read-out: PIM1 IC50
Counter-ions that a name gives are not always drawn.

[
  {
    "compound": "C[C@@H](Nc1cc(-c2n[nH]c(=O)o2)ccc1C(F)(F)F)C1CCNCC1 [Example 59, hydrochloride]",
    "tested-on": "PIM1 transgenic cells (Ba/F3) (Homo sapiens)",
    "units-label": "nM",
    "GI50": 320
  },
  {
    "compound": "O=c1[nH]nc(-c2ccc(C(F)(F)F)c(N[C@H]3CCC34CCNCC4)c2)o1 [Example 45, hydrochloride]",
    "tested-on": "PIM1 transgenic cells (Ba/F3) (Homo sapiens)",
    "units-label": "nM",
    "GI50": 390
  },
  {
    "compound": "CC1(C)[C@H](CNc2cc(-c3n[nH]c(=O)o3)ccc2C(F)(F)F)C[C@@H]1N [Example 166, hydrochloride]",
    "tested-on": "PIM1 transgenic cells (Ba/F3) (Homo sapiens)",
    "units-label": "nM",
    "GI50": 26
  },
  {
    "compound": "O=c1[nH]nc(-c2ccc(C(F)(F)F)c(CCC3CCNCC3)c2)o1 [Example 26, hydrochloride]",
    "tested-on": "PIM1 transgenic cells (Ba/F3) (Homo sapiens)",
    "units-label": "nM",
    "GI50": 910
  }
]

----------
# tested-on: PIM1 transgenic cells (Ba/F3) (Homo sapiens, UniProt P11309)
# Sequence (P11309 whole entry, change not shown): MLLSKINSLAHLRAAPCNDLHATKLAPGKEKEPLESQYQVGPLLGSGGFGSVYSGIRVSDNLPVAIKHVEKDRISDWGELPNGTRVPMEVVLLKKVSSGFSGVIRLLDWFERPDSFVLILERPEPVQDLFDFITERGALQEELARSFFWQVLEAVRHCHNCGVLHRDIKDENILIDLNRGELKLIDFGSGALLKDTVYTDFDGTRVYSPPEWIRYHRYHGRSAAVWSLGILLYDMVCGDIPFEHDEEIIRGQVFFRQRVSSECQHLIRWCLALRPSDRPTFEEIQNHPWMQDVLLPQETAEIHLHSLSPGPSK
# assay-remarks: Proliferation inhibitory effect on PIM1 transgenic cells
# Type: cell-based, mouse
# experimental-parameters: proliferation inhibition, 72 hours, Cell Counting Kit-8, read-out: PIM1 IC50
Counter-ions that a name gives are not always drawn.
measure: log10(GI50) (log10 of the value in nM)

[
  {
    "compound": "C[C@H](Nc1cc(-c2n[nH]c(=O)o2)cc(N)c1Cl)C1CCNCC1 [Example 92, dihydrochloride]",
    "log10(GI50)": 2.45
  },
  {
    "compound": "C[C@H](Nc1cc(-c2n[nH]c(=O)o2)cc(C(F)(F)F)c1Cl)[C@H]1C[C@@H](N)C1 [Example 183, hydrochloride]",
    "log10(GI50)": 1.65
  },
  {
    "compound": "C[C@H](Nc1cc(-c2n[nH]c(=O)o2)ccc1C(F)(F)F)C12CC(N)(C1)C2",
    "log10(GI50)": 1.94
  },
  {
    "compound": "C[C@H](Nc1cc(-c2n[nH]c(=O)o2)ccc1C(F)(F)F)[C@H]1CC[C@@H](N)C1 [Example 199, hydrochloride]",
    "log10(GI50)": 2.04
  },
  {
    "compound": "C[C@H](Nc1cc(-c2n[nH]c(=O)o2)cc(F)c1C1CC1)[C@H]1CC[C@H](N)CC1",
    "log10(GI50)": 1.34
  },
  {
    "compound": "C[C@H](Nc1cc(-c2n[nH]c(=O)o2)ccc1C(F)(F)F)C12CCC(N)(CC1)C2 [Example 187, hydrochloride]",
    "log10(GI50)": 2.04
  },
  {
    "compound": "C[C@@H]1CNCC[C@@H]1[C@H](C)Nc1cc(-c2n[nH]c(=O)o2)ccc1Cl",
    "log10(GI50)": 1.66
  },
  {
    "compound": "C[C@H](Nc1cc(-c2n[nH]c(=O)o2)ccc1C(F)(F)F)[C@@H]1CC[C@@H](N)CO1",
    "log10(GI50)": 1.75
  },
  {
    "compound": "CN[C@H]1CC[C@H]([C@H](C)Nc2cc(-c3n[nH]c(=O)o3)cc(F)c2OC(F)(F)F)CC1 [Example 204, hydrochloride]",
    "log10(GI50)": 1.76
  },
  {
    "compound": "O=c1[nH]nc(-c2ccc(C(F)(F)F)c(N[C@@H](C(F)F)C3CCNCC3)c2)o1 [Example 113, hydrochloride]",
    "log10(GI50)": 1.91
  },
  {
    "compound": "C[C@H](Nc1cc(-c2n[nH]c(=O)o2)c(Cl)cc1Cl)C1CCNCC1 [Example 96, hydrochloride]",
    "log10(GI50)": 2.58
  },
  {
    "compound": "CC(C)c1c(F)cc(-c2n[nH]c(=O)o2)cc1N[C@@H](C)[C@H]1CC[C@H](N)CC1 [Example 233, hydrochloride]",
    "log10(GI50)": 1.64
  },
  {
    "compound": "C[C@H](Nc1cc(-c2n[nH]c(=O)o2)ccc1C(F)(F)F)C1CCCNCC1 (stereo partly drawn) [Example 157, hydrochloride]",
    "log10(GI50)": 1.81
  },
  {
    "compound": "N[C@H]1CC[C@H](Nc2cc(-c3n[nH]c(=O)o3)ccc2OC(F)(F)F)CC1 [Example 38, hydrochloride]",
    "log10(GI50)": 2.74
  },
  {
    "compound": "CC1(C)[C@@H](CNc2cc(-c3n[nH]c(=O)o3)ccc2C(F)(F)F)C[C@H]1N",
    "log10(GI50)": 1.94
  }
]

----------
# tested-on: PIM1 serine/threonine kinase (Homo sapiens, UniProt P11309)
# assay-remarks: PIM1 serine/threonine kinase inhibitory effect
# experimental-parameters: PIM1 serine/threonine kinase activity; ATP 40 μM; 30° C., 30 minutes
Counter-ions that a name gives are not always drawn.
Under this convention, 1 (yes) denotes IC50 strictly below 5 nM and 0 (no) denotes IC50 at or above 5 nM.

[
  {
    "compound": "O=c1[nH]nc(-c2ccc(C(F)(F)F)c(N3CCC4(CC3)CNC4)c2)o1 [Example 16, hydrochloride]",
    "assigned-label": "0 (no)"
  },
  {
    "compound": "Cc1c(F)cc(-c2n[nH]c(=O)o2)cc1N[C@@H](C)[C@H]1CC[C@H](N)CC1 [Example 172, dihydrochloride]",
    "assigned-label": "1 (yes)"
  },
  {
    "compound": "C[C@H](Nc1cc(-c2n[nH]c(=O)o2)cc(Cl)c1Cl)[C@H]1C[C@@H](N)C1 [Example 179, dihydrochloride]",
    "assigned-label": "1 (yes)"
  },
  {
    "compound": "N[C@H]1CC[C@H](COc2cc(-c3n[nH]c(=O)o3)ccc2C(F)(F)F)CC1 [Example 240]",
    "assigned-label": "1 (yes)"
  },
  {
    "compound": "N[C@H]1CC[C@H](CNc2cc(-c3n[nH]c(=O)o3)ccc2-c2ccccc2)CC1 [Example 71, hydrochloride]",
    "assigned-label": "0 (no)"
  },
  {
    "compound": "CN[C@H]1CC[C@H](CN(C)c2cc(-c3n[nH]c(=O)o3)ccc2C(F)(F)F)CC1 [Example 132, hydrochloride]",
    "assigned-label": "0 (no)"
  },
  {
    "compound": "O=c1[nH]nc(-c2ccc(C(F)(F)F)c(NCC3(F)CCNCC3)c2)o1 [Example 108, hydrochloride]",
    "assigned-label": "0 (no)"
  },
  {
    "compound": "CC(Oc1cc(-c2n[nH]c(=O)o2)ccc1Br)[C@H]1CC[C@H](N)CC1 (stereo partly shown) [Example 237]",
    "assigned-label": "0 (no)"
  },
  {
    "compound": "CC(Oc1cc(-c2n[nH]c(=O)o2)ccc1Br)C1CCNCC1 (stereo not shown) [Example 236]",
    "assigned-label": "0 (no)"
  },
  {
    "compound": "CC(C[C@@H]1CCNC1)Nc1cc(-c2n[nH]c(=O)o2)ccc1C(F)(F)F (stereo partly shown) [Example 134, hydrochloride]",
    "assigned-label": "0 (no)"
  }
]

----------
# tested-on: PIM2 serine/threonine kinase (Homo sapiens, UniProt Q9P1W9)
# Sequence (Q9P1W9 whole entry): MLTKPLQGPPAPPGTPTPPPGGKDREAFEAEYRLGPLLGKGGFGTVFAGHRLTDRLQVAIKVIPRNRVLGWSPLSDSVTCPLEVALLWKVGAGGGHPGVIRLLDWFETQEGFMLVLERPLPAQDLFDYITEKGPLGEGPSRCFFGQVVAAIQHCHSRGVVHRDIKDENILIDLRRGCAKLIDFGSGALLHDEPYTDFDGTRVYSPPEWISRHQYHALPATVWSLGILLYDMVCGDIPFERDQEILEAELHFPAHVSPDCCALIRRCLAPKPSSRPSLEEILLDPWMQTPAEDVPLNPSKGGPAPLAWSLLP
# assay-remarks: PIM2 serine/threonine kinase inhibitory effect
# experimental-parameters: PIM2 serine/threonine kinase activity; ATP 2 μM; 30° C., 30 minutes
# Method: Each test substance was prepared to 10 mM with dimethylsulfoxide (DMSO), and further diluted with DMSO so as to have concentrations of 1000, 300, 100, 30, 10, 3, 1, 0.3, 0.1, 0.03, 0.01, and 0.001 μM. Moreover, each dilution was further diluted 33.3-fold with an assay buffer to prepare a test substance solution. The composition of the assay buffer was 50 mM HEPES (pH 7.0), 0.02% NaN3, 0.01% Bovine Serum Albumin, 0.1 mM Orthovanadate, 1 mM Dithiothreitol, and 5 mM MgCl2. […]
Structures can show the parent of a compound that is named as a salt.

[
  {
    "compound": "C[C@@H](Nc1cc(-c2n[nH]c(=O)o2)ccc1C(F)(F)F)C1CCNCC1 [Example 59, hydrochloride]",
    "IC50 (nM)": 98
  },
  {
    "compound": "C[C@H](Nc1cc(-c2n[nH]c(=O)o2)cc(F)c1C(F)(F)F)C1CCNCC1.Cl [Example 75, hydrochloride]",
    "IC50 (nM)": 2.3
  },
  {
    "compound": "NC[C@H]1CC[C@H](Nc2cc(-c3n[nH]c(=O)o3)ccc2C(F)(F)F)CC1 [Example 37, hydrochloride]",
    "IC50 (nM)": 11
  },
  {
    "compound": "CC(Nc1cc(-c2n[nH]c(=O)o2)ccc1C(F)(F)F)[C@H]1CC[C@H](N)CC1 (some centres unmarked) [Example 63, hydrochloride]",
    "IC50 (nM)": 13
  },
  {
    "compound": "N[C@H]1CC[C@H](CNc2cc(-c3n[nH]c(=O)o3)cc(F)c2C(F)(F)F)CC1 [Example 69, hydrochloride]",
    "IC50 (nM)": 7
  },
  {
    "compound": "C[C@H](Nc1cc(-c2n[nH]c(=O)o2)ccc1C(F)(F)F)C1CCNCC1 [Example 58, hydrochloride]",
    "IC50 (nM)": 18
  },
  {
    "compound": "N[C@H]1CC[C@H](CNc2cc(-c3n[nH]c(=O)o3)ccc2Cl)CC1 [Example 61, hydrochloride]",
    "IC50 (nM)": 19
  },
  {
    "compound": "N[C@H]1CC[C@H](CNc2cc(-c3n[nH]c(=O)o3)ccc2Br)CC1 [Example 68, hydrochloride]",
    "IC50 (nM)": 18
  }
]

src = patent US20220024921A1
